# Test system: Plasmodium berghei
# method.description: Screen against P. berghei liver stage (PbLuc), transformed with Luciferase, at 2uM
# Format: functional, HepG2
# run.conditions: tested at 2 uM
Screen size: about 68,000 compounds; about 2,700 (4%) showed an effect of 50% or more. This excerpt belongs to a sample that is enriched for strong results.
Give true (1) when the value for INHIBITION is at least 10%. Give false (0) when it is less.

In [3]: df
Out[3]:
                                    compound        cat
 0  Cn1cccc1C(=O)N1CCO[C@H]2[C@H](OCc3cccnc3)CC[C@@H]21  false (0)
 1  CCn1cc(S(=O)(=O)Nc2nc3c(s2)CC(C)CC3)cn1 (stereo not drawn)   true (1)
 2  Cc1n[nH]c(C2CN(CC(=O)NCCc3ccccc3)CCO2)n1 (stereo not drawn)   true (1)
 3  COc1cccc(-c2noc(C3CCN(Cc4ccccc4C)C3)n2)c1 (stereo not drawn)  false (0)
 4  Cn1cc2c(n1)C(CNC1CCOCC1)OCC2 (stereo not drawn)  false (0)
 5  CCc1ncc(C(=O)N2CCN(c3cnn(C)c(=O)c3)CC2)cn1   true (1)
 6  CN1CCCN(C(=O)c2cccc(S(=O)(=O)NCC3(C)COC3)c2)CC1  false (0)
 7  CC1CCc2nc(NS(=O)(=O)c3cnn(C)c3)sc2C1 (stereo not drawn)   true (1)
 8  CCC(CNS(C)(=O)=O)Oc1ccccc1F (stereo not drawn)   true (1)
 9  c1cc(CN2CCC(Cc3noc(C4CC4)n3)CC2)c2c(c1)OCO2   true (1)
10         CC(C)COc1cncc(NCCc2nnc3ccccn23)n1   true (1)
11     CN1CCN(CCOc2ccc(NC(=O)c3ccoc3)cc2)CC1  false (0)
12  O=C(O)[C@]12CCCN(Cc3ccccc3)C[C@H]1CN(c1ncccn1)C2  false (0)

---

# Tested on: Plasmodium berghei
# method.description: Screen against P. berghei liver stage (PbLuc), transformed with Luciferase, at 2uM
# Assay type: functional, HepG2
# run.conditions: tested at 2 uM
The whole screen tested about 68,000 compounds, of which about 2,700 (4%) showed an effect of 50% or more. Shown is part of a subset that was picked to be rich in strong results.
measurement.label: INHIBITION (%)

                                   compound              target  measurement_label  unit_of_measure  endpoint_result
0                 CC(C)C(=O)NCc1cc(Br)ccc1F  Plasmodium berghei         INHIBITION                %           -64.91
1  CC(C)COC(C)C(=O)NCCNS(C)(=O)=O (stereo not drawn)  Plasmodium berghei         INHIBITION                %            52.74
2       O=C(C1CC1)N(Cc1ccc2cc[nH]c2c1)C1CC1  Plasmodium berghei         INHIBITION                %            11.43

---

# Test system: Plasmodium berghei
# method.description: Screen against P. berghei liver stage (PbLuc), transformed with Luciferase, at 2uM
# Type: functional, HepG2
# run.conditions: tested at 2 uM
Screen size: about 68,000 compounds; about 2,700 (4%) showed an effect of 50% or more. Only a selection was taken, and strong results are over-represented in it overall.
Kind request: treat -20% as inclusive, so INHIBITION at -20% or higher is Y, anything lower is N.

>>> df
                                   molecule  cat
0     Cc1cc(NC(=O)CN2CCn3c(nnc3C3CC3)C2)on1    Y
1  O=C(O)c1cc(NS(=O)(=O)c2ccccc2F)ccc1N1CCSCC1    N
2  Cc1noc2ncc(C(=O)NCC3CCN(C(C)C)C3)cc12 (stereo not drawn)    Y
3  COc1ccc2cc(C(=O)N3CCCC(n4ccnc4C)C3)[nH]c2c1 (stereo not drawn)    N
4  Cc1nc(N2CCCC(C)C2)nc2cc(S(C)(=O)=O)ccc12 (stereo not drawn)    N
5  CC(C)c1cc(NC(=O)CN2CCCC2Cn2cncn2)on1 (stereo not drawn)    N
6  CC(C)N(C)Cc1cnc2n1CCN(S(=O)(=O)c1ccccc1)C2    Y
7  CC(=O)N1CCCN(C(=O)c2ccc(=O)n(C)c2)c2ccccc21    Y
